All values here come from patent US20100254942A1.

Would you mind telling me the reported Average Bacterial Assay Score HCV p7 of each entry?
- assay system: HCV p7 ion channel protein (Hepatitis C virus genotype 1a, UniProt P27958)
- Construct: codons were optimised for expression of the p7 protein in E. coli; expressed in transfected cells; host or cells: E. coli carrying plasmid pPLp7 (pPL451 backbone, temperature-inducible)
- Sequence (P27958 747-809): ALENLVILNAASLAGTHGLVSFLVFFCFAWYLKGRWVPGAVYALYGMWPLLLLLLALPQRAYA
- procedure text: Bacterial bioassay: growth of E. coli expressing HCV p7
- Assay type: cell-based
- Design: scale not given here
- assay context: cumulative averaged scores; result above zero indicates potential anti-viral activity
- Description: The bacterial bioassay method used in the present example to test the anti-viral activity of the compounds against different viral targets was described in detail in PCT/2004/000866, incorporated in its entirety herein by reference. This assay is used in conjunction with the GBV-B and BVDV assays described below, to ensure that all active compounds are identified, some of which are active in one or the other of the assays, while some compounds may be active in both assays. […]
Please reply with the number alone, leaving off any unit.

Endpoint output: Average Bacterial Assay Score HCV p7 of COc1ccc(-c2cccc3cc(C(=O)NC(=N)N)ccc23)c(OC)n1 [BIT315] . Value? 0.20

# Average Bacterial Assay Score HCV p7 lookup, item COc1c(C(=O)NC(=N)N)ccc2ccccc12 [BIT301, (1-methoxy-2-napthoyl)guanidine] 0.25

Query (compound): COc1cc(C(=O)NC(=N)N)c(OC)c2ccccc12 [BIT304, (1,4-dimethoxy--2-napthoyl)guanidine] ; field requested: Average Bacterial Assay Score HCV p7 0.60

Form field: reported Average Bacterial Assay Score HCV p7 of N=C(N)NC(=O)/C=C/c1cccc2c1OCO2 [BIT217, 2,3-methylenedioxycinnamoyl guanidine] 1.0

Would you kindly share the measured Average Bacterial Assay Score HCV p7 for CC(=O)Nc1ccc(-c2cccc3cc(C(=O)NC(=N)N)ccc23)cc1 [BIT317] ? 0.06

Look up Average Bacterial Assay Score HCV p7 for this compound: N=C(N)NC(=O)c1ccc2c(C3CC3)cccc2c1 [BIT312, (5-cyclopropyl-2-napthoyl)guanidine] 1.00

GET /values?readout=Average Bacterial Assay Score HCV p7&item= N=C(N)NC(=O)c1ccc2c(-c3ccsc3)cccc2c1 [BIT224, 5-thiophen-3-yl-2-naphthoylguanidine] 1.10

Query (compound): N=C(N)NC(=O)/C=C/c1cccc(C(=O)c2ccccc2)c1 [BIT216, (3-benzoyl)cinnamoylguanidine] ; field requested: Average Bacterial Assay Score HCV p7 1.3

Sample N=C(N)NC(=O)c1ccc2c(-c3ccccc3Cl)cccc2c1 [BIT316, (5-(2-chlorophenyl)-2-napthoyl)guanidine] — what was its Average Bacterial Assay Score HCV p7? 0.37

Consider the compound Cc1cccc2cc(C(=O)NC(=N)N)ccc12 [BIT218, 5-methyl-2-napthoylguanidine] and give its measured Average Bacterial Assay Score HCV p7. 1.7

// lookup Average Bacterial Assay Score HCV p7 for N=C(N)NC(=O)C=Cc1ccc(Cl)c(Cl)c1 [BIT300, 3,4-dichlorocinnamoyl guanidine] 1.12

Reported Average Bacterial Assay Score HCV p7 for N=C(N)NC(=O)/C=C/c1cccc2c1CCC2 [BIT222, 3(indan-4-yl)-propenoylguanidine] : what is it? 2.0
